The reported measurements were obtained from patent US10774071B2.

// values below are reported AC50
Target: PD-L1 (Homo sapiens (Human))
Assay: PD-L1/PD-L1 dimerization biochemical protein-protein interaction assay (ALPHA)
Assay type: binding
Settings: 0.5 nM His tagged PD-L1 and 0.5 nM FLAG tagged PD-L1, Table 4B, read-out: AC50 PDL1 Dimer 1 nM
Observation type: AC50 (nM)

{"Molecule": "COc1nc(O[C@H]2CCc3c(-c4cccc(-c5cnc(CNC[C@@H]6CCC(=O)N6)c(OC)n5)c4Cl)cccc32)c(Cl)cc1CN1CC(C(=O)O)C1", "Recorded measurement": 44.3}
{"Molecule": "COc1nc(-c2cccc(-c3cccc4c3CC[C@@H]4Oc3nc(OCc4cc(F)cc(C#N)c4)c(CN4CC5(C(=O)O)CCC4CC5)cc3Cl)c2Cl)ccc1CNC[C@@H]1CCC(=O)N1", "Recorded measurement": 58.3}
{"Molecule": "COc1nc(-c2cccc(-c3cccc4c3CC[C@@H]4Oc3nc(OC)c(CN4CC[C@@H](C(=O)N=S(C)(N)=O)C4)cc3Cl)c2Cl)ccc1CNC[C@@H]1CCC(=O)N1 (stereo partly shown)", "Recorded measurement": 66.9}
{"Molecule": "COc1nc(O[C@H]2CCc3c(-c4cccc(-c5cc(C)c(CN6CC(C)(O)C6)c(OC)n5)c4Cl)cccc32)c(Cl)cc1CN1CC2(C(=O)O)CCC1CC2", "Recorded measurement": 66.5}
{"Molecule": "COc1nc(-c2cccc(-c3cccc4c3CC[C@@H]4Oc3nc(OC)c(CN[C@H](C)C(=O)O)cc3C)c2Cl)ccc1CNC[C@@H]1CCC(=O)N1", "Recorded measurement": 18.9}
{"Molecule": "COc1nc(-c2cccc(-c3cccc4c3CC[C@@H]4Oc3nc4c(nc3Cl)c(CNC[C@@H]3CCC(=O)N3)nn4C)c2Cl)ccc1CNC[C@@H]1CCC(=O)N1", "Recorded measurement": 178}
{"Molecule": "COc1nc(-c2cccc(-c3cccc4c3CC[C@@H]4Oc3nc(OCc4ccc(-n5cccn5)nc4)c(CN4CC5(C(=O)O)CCC4CC5)cc3Cl)c2Cl)ccc1CNC[C@@H]1CCC(=O)N1", "Recorded measurement": 41}
{"Molecule": "COc1nc(-c2cccc(-c3cccc4c3CC[C@@H]4Oc3nc(OCC#N)c(CNC4(C(=O)O)CC4)cc3C(F)(F)F)c2Cl)ccc1CNC[C@@H]1CCC(=O)N1", "Recorded measurement": 13.4}
{"Molecule": "COc1nc(-c2cccc(-c3cccc4c3CC[C@@H]4Oc3nc(OC)c(CN4C[C@H](C(=O)O)[C@@H](C)C4)cc3Cl)c2Cl)ccc1CNC[C@@H]1CCC(=O)N1", "Recorded measurement": 41.3}
{"Molecule": "COc1nc(-c2cccc(-c3cccc4c3CC[C@@H]4Oc3nc(OC)c(CN4CCC(C(=O)O)CC4)cc3Cl)c2Cl)ccc1CNC[C@@H]1CCC(=O)N1", "Recorded measurement": 26.3}
{"Molecule": "COc1nc(-c2cccc(-c3cccc4c3CC[C@@H]4Oc3nc(OC)c(CNCC(=O)O)cc3C(F)(F)F)c2Cl)ccc1CN[C@]1(C)C[C@@](C)(O)C1", "Recorded measurement": 7.55}
{"Molecule": "COc1nc(-c2cccc(-c3cccc4c3CC[C@@H]4Oc3nc(OC)c(CN4CCC5CC4(C(=O)O)C5)cc3C(F)(F)F)c2Cl)ccc1CNC[C@@H]1CCC(=O)N1", "Recorded measurement": 0.518}
{"Molecule": "COc1cc(O[C@H]2CCc3c(-c4cccc(-c5ccc(CNC[C@@H]6CCC(=O)N6)c(OC)n5)c4Cl)cccc32)c(C(F)(F)F)cc1CN1CC[C@@](C)(C(=O)O)C1", "Recorded measurement": 17.3}
{"Molecule": "COc1nc(-c2cccc(-c3cccc4c3CC[C@@H]4Oc3nc(OC)c(CN4CC5CC5(C(=O)O)C4)cc3Cl)c2Cl)ccc1CNC[C@@H]1CCC(=O)N1 (stereo partly shown)", "Recorded measurement": 67.9}
{"Molecule": "COc1nc(-c2cccc(-c3cccc4c3CC[C@@H]4Oc3nc(OC)c(CN4C5CCC4(C(=O)O)CC5)cc3C(F)(F)F)c2Cl)ccc1CNC[C@@H]1CCC(=O)N1", "Recorded measurement": 1.79}
{"Molecule": "COc1nc(O[C@H]2CCc3c(-c4cccc(-c5ccc(CNC[C@@H]6CCC(=O)N6)c(OCC#N)n5)c4Cl)cccc32)c(Cl)cc1CNC1(C(=O)O)CC1", "Recorded measurement": 15.7}
{"Molecule": "COc1nc(-c2cccc(-c3cccc4c3CC[C@@H]4Oc3nc(OC)c(CNCC(=O)O)cc3C)c2Cl)ccc1CNC[C@@H]1CCC(=O)N1", "Recorded measurement": 21.3}
{"Molecule": "COc1nc(-c2cccc(-c3cccc4c3CC[C@@H]4Oc3nc(OC)c(CN[C@@H]4CCC[C@@H]4C(=O)O)cc3Cl)c2Cl)ccc1CNC[C@@H]1CCC(=O)N1", "Recorded measurement": 31.1}
{"Molecule": "COc1nc(-c2cccc(-c3cccc4c3CC[C@@H]4Oc3nc(OC)c(CN4CC[C@@](C)(C(=O)O)C4)cc3C(F)(F)F)c2Cl)ccc1CN[C@H]1C[C@](C)(O)C1", "Recorded measurement": 17}
{"Molecule": "COc1nc(-c2cccc(-c3cccc4c3CC[C@@H]4Oc3nc(OC)c(CNC4(C(=O)O)CC4)cc3C(F)(F)F)c2Cl)ccc1CN1CC(C)(O)C1", "Recorded measurement": 15.2}
{"Molecule": "COc1nc(-c2cccc(-c3cccc4c3CC[C@@H]4Oc3nc(OC)c(CN4CC5CC(C(=O)O)C4C5)cc3Cl)c2Cl)ccc1CNC[C@@H]1CCC(=O)N1 (stereo partly shown)", "Recorded measurement": 19.8}
{"Molecule": "COc1nc(-c2cccc(-c3cccc4c3CC[C@@H]4Oc3nc(OC)c(CN[C@@H](C)C(=O)O)cc3C(F)(F)F)c2Cl)ccc1CNC[C@@H]1CCC(=O)N1", "Recorded measurement": 1.91}

---

Molecular target: FFA1 (h) (GRP40) (Homo sapiens (Human))
Sequence (O14842 whole entry): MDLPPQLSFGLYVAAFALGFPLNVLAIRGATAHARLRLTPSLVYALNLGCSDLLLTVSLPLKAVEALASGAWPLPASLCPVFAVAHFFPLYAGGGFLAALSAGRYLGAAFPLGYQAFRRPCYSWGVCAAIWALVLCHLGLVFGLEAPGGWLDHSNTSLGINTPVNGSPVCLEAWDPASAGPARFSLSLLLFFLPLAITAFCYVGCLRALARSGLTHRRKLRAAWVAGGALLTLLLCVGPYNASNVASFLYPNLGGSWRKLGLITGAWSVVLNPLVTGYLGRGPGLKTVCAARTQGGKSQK
Assay: GPR40 functional assay, agonist effect (intracellular Ca2+, fluorimetry)
Type: cell-based
Details: HEK293, human recombinant GPR40 in HEK-293 cells, control 100 μM linoleic acid, mean, read-out: % of control agonist response, Mean
// values below are reported activity at 10 µM
Observation type: activity at 10 µM (%)

{"Structure string": "COc1nc(-c2cccc(-c3cccc4c3CC[C@@H]4Oc3nc(OC)c(CN4CC5(C(=O)O)CCC4CC5)nc3C)c2Cl)ccc1CNC[C@@H]1CCC(=O)N1", "Unit name": "%", "Recorded measurement": -1.2}
{"Structure string": "COc1nc(-c2cccc(-c3cccc4c3CC[C@@H]4Nc3nc(OC)c(CN4CC5(C(=O)O)CCC4CC5)nc3C(F)(F)F)c2Cl)ccc1CNC[C@@H]1CCC(=O)N1", "Unit name": "%", "Recorded measurement": -1.3}
{"Structure string": "COc1nc(-c2cccc(-c3cccc4c3CC[C@@H]4Oc3nc(OC)c(CNC4(C(=O)O)CC4)cc3C(F)(F)F)c2Cl)ccc1CNC[C@@H]1CCC(=O)N1", "Unit name": "%", "Recorded measurement": -0.4}
{"Structure string": "COc1nc(-c2cccc(-c3cccc4c3CC[C@@H]4Nc3nc(OC)c(CNC4(C(=O)O)CC4)cc3C(F)(F)F)c2Cl)ccc1CNC[C@@H]1CCC(=O)N1", "Unit name": "%", "Recorded measurement": 0.6}

---

Target: PD-L1 (Homo sapiens (Human), UniProt Q9NZQ7)
Sequence (Q9NZQ7 19-238): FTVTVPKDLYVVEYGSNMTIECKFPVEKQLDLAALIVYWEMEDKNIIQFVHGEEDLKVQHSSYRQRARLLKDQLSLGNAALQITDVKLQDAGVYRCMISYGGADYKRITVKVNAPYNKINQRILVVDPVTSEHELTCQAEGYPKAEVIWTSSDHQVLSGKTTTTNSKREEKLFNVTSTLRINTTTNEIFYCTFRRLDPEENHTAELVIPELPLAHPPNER
Sequence (Q9NZQ7 19-238): as the sequence (Q9NZQ7 19-238) above
Test: PD-L1/PD-L1 dimerization biochemical protein-protein interaction assay (ALPHA)
Type: binding
Conditions: 0.5 nM His tagged PD-L1 and 0.5 nM FLAG tagged PD-L1, Table 4A, read-out: AC50 PDL1 Dimer 1 nM
One threshold, 7 nM, splits the recorded AC50 values: lower ones are criterion met, equal or higher ones are criterion not met.

{"Compound": "COc1cc(-c2cccc(-c3cccc4c3CC[C@@H]4Nc3nc(OC)c(CN4CC[C@@H](C(=O)O)C4)cc3C(F)(F)F)c2Cl)ccc1CNC[C@@H]1CCC(=O)N1", "Assigned label": "criterion met"}
{"Compound": "COc1nc(-c2cccc(-c3cccc4c3CC[C@@H]4Nc3nc(OC)c(CN4CCC5CC4(C(=O)O)C5)nc3C(F)(F)F)c2Cl)ccc1CNC[C@@H]1CCC(=O)N1", "Assigned label": "criterion not met"}
{"Compound": "COc1nc(-c2cccc(-c3cccc4c3CC[C@@H]4Nc3nc(OC)c(CN4C5CCC4(C(=O)O)CC5)nc3C(F)(F)F)c2Cl)ccc1CNC[C@@H]1CCC(=O)N1", "Assigned label": "criterion met"}
{"Compound": "COc1nc(-c2cccc(-c3cccc4c3CC[C@@H]4Nc3nc(OC)c(CN[C@@H](C)C(=O)O)nc3C(F)(F)F)c2Cl)ccc1CNC[C@@H]1CC(O)C(=O)N1 (some centres unmarked)", "Assigned label": "criterion met"}
{"Compound": "COc1nc(-c2cccc(-c3cccc4c3CC[C@@H]4Nc3nc(OC)c(CNCC(=O)O)nc3C(F)(F)F)c2Cl)ccc1CNC[C@@H]1CCC(=O)N1", "Assigned label": "criterion not met"}
{"Compound": "COc1nc(-c2cccc(-c3cccc4c3CC[C@@H]4Nc3nc(OC)c(CN[C@@H](C)C(=O)O)cc3C(F)(F)F)c2Cl)ccc1CNC[C@@H]1CCC(=O)N1", "Assigned label": "criterion not met"}
{"Compound": "COc1cc(-c2cccc(-c3cccc4c3CC[C@@H]4Nc3nc(OC)c(CN4CC5(C(=O)O)CCC4CC5)nc3C(F)(F)F)c2Cl)cc(F)c1CNC[C@@H]1CCC(=O)N1", "Assigned label": "criterion not met"}
{"Compound": "COc1nc(-c2cccc(-c3cccc4c3CC[C@@H]4Nc3nc(OC)c(CNC4(C(=O)O)CC4)cc3C(F)(F)F)c2Cl)ccc1CNC[C@@H]1CCC(=O)N1", "Assigned label": "criterion not met"}
{"Compound": "COc1nc(-c2cccc(-c3cccc4c3CC[C@@H]4Nc3nc(OC)c(CN[C@@H](C)C(=O)O)nc3C(F)(F)F)c2Cl)ccc1CNC[C@@H]1CCC(=O)N1", "Assigned label": "criterion met"}
{"Compound": "COc1nc(-c2cccc(-c3cccc4c3CC[C@@H]4Nc3nc(OC)c(CN[C@H](C(=O)O)C(C)C)nc3C(F)(F)F)c2Cl)ccc1CNC[C@@H]1CCC(=O)N1", "Assigned label": "criterion not met"}
